Test system: iATPSnFR2.A95A.A119L
Construct: epsilon subunit residues 1-109, linker 1 VLVG, cpSFGFP, linker 2 ICV, residues 110-129, C-terminal HaloTag conjugated to JFX650
Assay: Separate head-to-head equilibrium fluorescence titration of 0.2 µM purified sensor HaloTag-JFX650 conjugate with ATP and other nucleoside triphosphates (ex 485 nm, em 535 nm) in Mammalian Cell Imaging Buffer, pH 7.2.
Conditions: n = 3; read-out: Binding curve fits, in µM, for ATP, CTP, GTP (binding specificity)
molecules and their reported Kd

molecule	Kd
Nc1nc2c(ncn2[C@@H]2O[C@H](COP(=O)(O)OP(=O)(O)OP(=O)(O)O)[C@@H](O)[C@H]2O)c(=O)[nH]1 [GTP, guanosine triphosphate]	~10000 µM
Nc1ncnc2c1ncn2[C@@H]1O[C@H](COP(=O)(O)OP(=O)(O)OP(=O)(O)O)[C@@H](O)[C@H]1O [ATP, adenosine triphosphate]	750 µM

From here, focus on the item given below.
Incoming: # input molecule: Nc1ccn([C@@H]2O[C@H](COP(=O)(O)OP(=O)(O)OP(=O)(O)O)[C@@H](O)[C@H]2O)c(=O)n1 [CTP, cytidine triphosphate] ; wanted: its Kd
Outgoing: ~10000 µM
